Task for the reader: assign each of the following compounds its reported IC50.
# assay-system: human recombinant ETB receptor (Homo sapiens, UniProt P24530)
# Sequence (P24530 27-442): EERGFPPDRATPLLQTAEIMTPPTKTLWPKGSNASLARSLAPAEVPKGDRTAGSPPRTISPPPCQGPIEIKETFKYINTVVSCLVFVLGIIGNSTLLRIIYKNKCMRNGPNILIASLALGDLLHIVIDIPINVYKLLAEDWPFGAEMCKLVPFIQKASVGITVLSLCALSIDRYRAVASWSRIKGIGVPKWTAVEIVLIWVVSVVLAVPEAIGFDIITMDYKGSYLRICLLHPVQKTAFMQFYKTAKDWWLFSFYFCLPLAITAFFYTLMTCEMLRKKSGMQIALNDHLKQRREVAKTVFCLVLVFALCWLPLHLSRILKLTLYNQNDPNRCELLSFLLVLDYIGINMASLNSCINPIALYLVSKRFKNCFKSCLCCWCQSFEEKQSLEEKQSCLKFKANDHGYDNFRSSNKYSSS
# test-name: Inhibition of [125I]ET-1 binding to membranes from CHO cells carrying human ETB receptors

Below: 6 compounds and their reported IC50.
- compound: "CSc1cnc(OCCOc2ncnc(NS(=O)(=O)NC3CC3)c2-c2ccc(Br)cc2)nc1 [Example 197]"
  observed-measurement: "0.418 µM"
- compound: "COc1cnc(OCCOc2ncnc(NS(=O)(=O)NCc3ccccc3)c2-c2ccc(Cl)cc2)nc1 [Example 15]"
  observed-measurement: "2.16 µM"
- compound: "COc1ccccc1CNS(=O)(=O)Nc1nc(-c2ncccn2)nc(OCCOc2ncccn2)c1Oc1ccccc1OC [Example 175]"
  observed-measurement: "0.062 µM"
- compound: "CCNS(=O)(=O)Nc1ncnc(OCCOc2ncc(Br)cn2)c1-c1ccc(Cl)cc1 [Example 115]"
  observed-measurement: "> 1 µM"
- compound: "Cc1ccc(NS(=O)(=O)Nc2ncnc(OCCOc3ncc(Br)cn3)c2-c2ccc(C)cc2)cc1 [Example 12]"
  observed-measurement: "> 10 µM"
- compound: "COc1ccc(CNS(=O)(=O)Nc2nc(-c3ncccn3)nc(OCCOC(=O)Nc3ccccc3)c2Oc2ccccc2OC)cc1OC [Example 168]"
  observed-measurement: "0.0016 µM"

For the next question, use this compound.
Enquiry: What value of IC50 has been recorded for this entry: COc1ccccc1Oc1c(NS(=O)(=O)NCc2ccccn2)nc(-c2ncccn2)nc1OCCOc1nccs1 [Example 157]
Return: 0.954 µM
